The reported measurements were obtained from ChEMBL document CHEMBL1139129.

target: Amyloid-beta precursor protein (Homo sapiens, UniProt P05067)
Sequence (P05067 whole entry): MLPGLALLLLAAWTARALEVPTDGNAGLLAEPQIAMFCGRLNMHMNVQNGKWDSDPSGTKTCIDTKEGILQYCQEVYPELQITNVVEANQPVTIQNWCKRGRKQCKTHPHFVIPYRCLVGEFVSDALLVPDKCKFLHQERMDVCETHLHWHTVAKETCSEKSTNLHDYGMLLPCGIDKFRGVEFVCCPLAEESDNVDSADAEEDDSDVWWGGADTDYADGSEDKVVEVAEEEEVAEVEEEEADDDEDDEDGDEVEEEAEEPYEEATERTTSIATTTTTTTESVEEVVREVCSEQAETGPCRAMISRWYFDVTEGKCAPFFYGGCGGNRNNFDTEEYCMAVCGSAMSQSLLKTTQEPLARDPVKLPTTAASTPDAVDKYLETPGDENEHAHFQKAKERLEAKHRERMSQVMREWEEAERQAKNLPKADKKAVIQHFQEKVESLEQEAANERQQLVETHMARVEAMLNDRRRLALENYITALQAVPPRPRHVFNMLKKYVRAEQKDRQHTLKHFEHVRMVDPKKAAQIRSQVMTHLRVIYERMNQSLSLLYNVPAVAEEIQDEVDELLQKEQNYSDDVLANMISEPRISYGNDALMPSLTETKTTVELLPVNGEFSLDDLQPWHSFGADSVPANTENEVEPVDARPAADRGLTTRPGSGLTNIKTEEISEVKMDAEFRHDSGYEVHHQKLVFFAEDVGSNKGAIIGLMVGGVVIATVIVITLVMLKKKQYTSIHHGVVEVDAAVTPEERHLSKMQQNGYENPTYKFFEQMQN
protocol_details: Inhibition of amyloid beta 42 fibril formation by thioflavin T assay
pIC50: −log10 of the molar value.
measured_attribute: pIC50

1 = COc1cc(/C=C/c2cc(Cl)cc(/C=C/c3ccc(O)c(OC)c3)n2)ccc1O
2 = COc1cc(/C=C/c2cc(Br)cc(/C=C/c3ccc(O)c(OC)c3)c2)ccc1O
3 = CNc1ccc(/C=C/c2cccc(/C=C/c3ccc(NC)c(OC)c3)c2)cc1OC
Task: Arrange these molecules by their pIC50, starting with the largest number. Could you list the labels in the order requested?
Output: 2, 3, 1

a = COc1ccc(/C=C/c2cccc(/C=C/c3ccc(OC)c(N(C)C)c3)c2)cc1N(C)C
b = COc1cc(/C=C/c2cccc(/C=C/c3ccc(N)c(OC)c3)c2)ccc1N
Task: // compare measured pIC50, left a , right b , return larger Lab note: record the label of whichever item you select.
Output: b

###

target: Amyloid-beta precursor protein (Homo sapiens)
protocol_details: Inhibition of amyloid beta 42 fibril formation by thioflavin T assay
measured_attribute: IC50 (nM)

1. COc1cc(/C=C/c2cc(C)cc(/C=C/c3ccc(O)c(OC)c3)n2)ccc1O :: 1400

1 = COc1cc(/C=C/c2ccc(O)c(OC)c2)nc(/C=C/c2ccc(O)c(OC)c2)c1
2 = CN(C)c1ccc(/C=C/c2cccc(/C=C/c3ccc(N(C)C)c(O)c3)n2)cc1O
Task: // compare measured IC50, left 1 , right 2 , return larger Lab note: record the label of whichever item you select.
Output: 1
